system: NCI-H226 lung; assay: NCI-60 one-dose screen, 48 h (100 = growth as untreated, 0 = no growth, -100 = all killed); conditions: 10 µM unless noted
About 83,000 compounds went through this panel and 20% of them were active in at least one assay; those are over-represented in the sample as a whole.
endpoint.name: growth (%)
Please reply with the bare figure in % and do not write the unit itself.

Some solved cases for reference:
compound | growth, %
O=C1/C(=C/c2ccc(Cl)cc2)CCC/C1=C\c1ccc(Cl)cc1 | 104
O=C(/C=C/c1ccc(Br)cc1)c1ccccc1 | 90.8
C/C=C/C/C=C/[C@H](C)C[C@H](O)[C@@H]1C[C@@H]2O[C@H]2/C=C/[C@@H]2OC(C)(C)O[C@H]2/C=C/C[C@H](C)CC(=O)O1 | 30.5
OCC(O)C(O)CC1SCCS1 (stereo unspecified) | 91.9
CCCCCCCCCc1cc[n+](CC(=O)c2ccc([N+](=O)[O-])cc2)cc1 | 31.8

Any idea what growth was measured for `O=C(NC(=S)NNC(=S)NNc1ccccc1)c1ccccc1` ?
40.6

Then what about the compound `COc1cc([C@@H]2c3cc4c(cc3[C@H](O)[C@H]3COC[C@@H]23)OCO4)cc(OC)c1OC` ?
88.8

Please give the result for `CC(=O)Nc1nc(C)c(C(=O)NNS(=O)(=O)c2ccccc2)s1` too.
112

How about `Cc1nc2c(nnn2-c2ccccc2)c2nc(-c3ccc(Cl)cc3)oc(=O)c12` ?
92.8

Also need `COC(=O)Nc1nc2ccc(C(=O)c3ccccc3N(C)C3COC3)cc2[nH]1` , thanks.
49.6

What do you have for `O=C(CCl)NC1c2ccccc2Oc2ccccc21` ?
98.1

###

system: MCF7 breast; assay: NCI-60 one-dose screen, 48 h (100 = growth as untreated, 0 = no growth, -100 = all killed); conditions: 10 µM unless noted
The panel holds about 83,000 compounds, 20% with a hit somewhere; the sample as a whole holds those more often.
endpoint.name: growth (%)
The figure you give is taken to be in %; do not add the unit.

Study these solved cases before continuing.
compound | target.under.test | growth [%]
CC([C@H]1CC=C2C3CCC4=C[C@@H](N(C)C)CC[C@]4(C)C3CC[C@@]21C)N(C)C (some centres not stated) | MCF7 breast | 34.9
COc1ccc(/C=C2\SC(=O)N(Cc3cc(=O)oc4ccc(OC)cc34)C2=O)cc1 | MCF7 breast | 82.5
CN(C)CCOC(=O)C(C)(C)C | MCF7 breast | 99.3
O=C1C(Br)=CC2C1C1C3CCC3C2(Br)C12OCCO2 (configuration not stated) | MCF7 breast | 2.12

Look up growth for this compound: `C=C(NC(=O)[C@H](C(C)C)N(C)c1cccc2[nH]ccc12)C(=O)OC`
99.6

Note, next up: `c1ccc2[nH]c(-c3ccc(OCCCCCOc4ccc(-c5nc6ccccc6[nH]5)cc4)cc3)nc2c1`
-39.3

Try this compound too: `CC(=N\N=C(N)N)/C(=N/N=C(N)N)c1ccccc1`
18.9

###

test system: NCI-H226 lung; test: NCI-60 one-dose screen, 48 h; conditions: 10 µM unless noted
The panel holds about 83,000 compounds, 20% with a hit somewhere; the sample as a whole holds those more often. Calls of active or inactive are those of the source. How the source made its calls: active means growth percent below 10; inactive means the rest.
Answer with one of the outcomes 1.0 = active, 0.0 = inactive

Consider the following illustrative entries.
molecule | target.under.test | class.label
CN1CCN(Cc2ccc(NC(=O)c3ccc(C#Cc4c(N)ncc5ccc(F)cc45)cc3)cc2C(F)(F)F)CC1 | NCI-H226 lung | 0.0
CCCC(=O)Nc1ccccc1C(=O)O | NCI-H226 lung | 0.0

For the next question, use this molecule.
Assay outcome for `COC(=O)c1ccc(C(=Nc2ccc(N(C)C(=O)CN3CCN(C)CC3)cc2)c2c(O)[nH]c3ccc(C(=O)OC)cc23)cc1` : what was it?
0.0

###

tested on: SR leukemia; assay: NCI-60 one-dose screen, 48 h (100 = growth as untreated, 0 = no growth, -100 = all killed); conditions: 10 µM unless noted
This is part of a sample that, as a whole, favours compounds with a hit. Of some 83,000 tested, about 20% had one in any assay.
# key: entry, value: growth
Entry rule: numbers only, all in %.

Can you look up growth on SR leukemia for CC(O)CN(CC(C)O)N(CC(C)O)CC(C)O (configuration not stated) ?
94.2

Again, but for C=CCC(CCC(CC=C)C(=O)OCC)C(=O)OCC (configuration not stated)
86.7

Next up: O=C1Nc2c(c(=O)n(-c3ccccc3)c3ccccc23)C(c2ccc(Cl)cc2)N1 (configuration not stated)
77.8

# iterate: `COc1cc2cn3c4ccc(O)cc4[nH]c(=O)c3c2cc1OC`
-17.5

Record: `CCCNC(=O)Oc1ccc(/C(=C(/C)Cc2ccc(OC)cc2)c2ccc(OCCN3CCCCC3)cc2)cc1`
3.39

What do you get for `CCOC(=O)c1c(C)oc2ncnc(Nc3ccc(C(=O)NCCc4ccccc4)cc3)c12` ?
89.2

Same thing, different compound: `O=C(O)c1ccc(Br)nc1`
95.9

Check `C/C(=C\c1ccc2ccccc2c1)[N+](=O)[O-]` too.
4.41

Entry to check: `CCCCCCN(CCCCCC)CCC(=O)Nc1ccc(S(=O)(=O)c2ccc(NC(=O)CCN(CCCCCC)CCCCCC)cc2)cc1`
7.85

Now give it for COc1cc(NC(C)CCCN)c2nc(C)ccc2c1OC (configuration not stated) too.
17.7

Can you check CC(=O)CCS(=O)c1ccccc1 (configuration not stated) next?
85.1

Then what about the compound `CC(C)OC(=O)Nn1cnc2ccccc21` ?
-48

###

tested on: NCI-H460 lung; assay: NCI-60 one-dose screen, 48 h; settings: 10 µM unless noted
The panel holds about 83,000 compounds, 20% with a hit somewhere; the sample as a whole holds those more often. The source made the active and inactive calls. How the source made its calls: active means growth percent below 10; inactive means the rest.
Allowed answers: class 1 (active), class 0 (inactive)

compound | class.label
CCOc1ccc(/C=N/NC(=O)c2cccc3ccccc23)cc1OCC | class 0

Fill in: this test's call for `COc1ccc(-c2nnc(SCC(=O)Nc3ccc(C(=O)/C=C/c4cc(OC)c(OC)c(OC)c4)cc3)n2-c2ccccc2)cc1OC` is ___
class 0

###

test system: CAKI-1 renal; assay: NCI-60 one-dose screen, 48 h (100 = growth as untreated, 0 = no growth, -100 = all killed); settings: 10 µM unless noted
About 83,000 compounds went through this panel and 20% of them were active in at least one assay; those are over-represented in the sample as a whole. The source made the active and inactive calls. Rule for the calls: active = growth percent below 10; inactive = the rest.
Catalogue of compounds with associated growth

compound | endpoint.name | assay.result
CC[N+](C)(C)N | growth | 95.4% (inactive)
COc1ccc(-c2nnc(SCC(=O)Nc3ccc(C(=O)/C=C/c4cc(OC)c(OC)c(OC)c4)cc3)n2-c2ccccc2)cc1OC | growth | 1.67% [100 µM] (active)
COC(=O)c1ccc2[nH]c(O)c(C(=Nc3ccc(N(C)C(=O)CN4CCN(C)CC4)cc3)c3ccc(OC)cc3)c2c1 | growth | 5.5% (active)
O=C(O)CC1Cc2ccccc2C1C(=O)O (configuration not stated) | growth | 104% (inactive)
CC1(c2ccc(Br)cc2)NC(=O)NC1=O (configuration not stated) | growth | 97.8% (inactive)
Oc1ccccc1\C=N/N=C/C=C/c1ccccc1 | growth | 96.7% (inactive)
N=C(N)c1ccc(-c2ccc(-c3cc(Cl)cc(Cl)c3)s2)cc1 | growth | -90.2% (active)
O=S(=O)(O)c1ccc2c(c1)Sc1cc(S(=O)(=O)O)ccc1O2 | growth | 105% (inactive)
COC(=O)C(N)CC(C)C (configuration not stated) | growth | 99.7% (inactive)
COc1ccc(C2CC(=O)c3c(O)cc(OC4OC(COC5OC(C)C(O)C(O)C5O)C(O)C(O)C4O)cc3O2)cc1O (configuration not stated) | growth | 105% (inactive)

Please give the measured growth for this compound: `O=C(NCCNCCO)c1cc([N+](=O)[O-])cc([N+](=O)[O-])c1O`
100% (inactive)

Can you check `O=C(Nc1cccc(Cn2c(=O)[nH]c3ccc(Oc4ncccn4)cc3c2=O)c1)c1cccc(F)c1` next?
89% (inactive)

###

tested on: A549/ATCC NSCLC; experiment: NCI-60 one-dose screen, 48 h; details: 10 µM unless noted
About 83,000 compounds went through this panel and 20% of them were active in at least one assay; those are over-represented in the sample as a whole. Calls of active or inactive are those of the source. Rule for the calls: active = growth percent below 10; inactive = the rest.
Mark one answer only. Choices: true (active), false (inactive)

Use these answered entries as a reference point.
compound | class.label
O=Nc1ccc(O)c2ccccc12 | false
CC1(C)N=C(N)N=C(N)N1c1cccc(CCCCOc2ccccc2)c1 | false
C[C@@H](c1ccc2c(c1)[nH]c1ccc(Cl)cc12)c1nc2ccccc2[nH]1 | false
CC(=N\N=C(N)N)/C(=N/N=C(N)N)c1ccccc1 | false
CCC(C)C1NC(=O)C(CCCCN)NC(=O)C(CCCCN)NC(=O)C(CC(C)C)NC(=O)C(CCCCN)NC(=O)C(C(C)CC)NC(=O)C(C(C)C)NC(=O)C(C(C)CC)NC(=O)C(CCCCN)NC(=O)C(CCCCN)NC(=O)C(C)NC(=O)C(CCCCN)NC(=O)C(CC(C)C)NC1=O (configuration not stated) | false

// outcome(item) with item = `C/C(=N\Nc1ccc(Cl)cn1)c1ccc2ccccc2n1`
true

Request: COc1ccc(C(=O)N2N=C(c3ccc(Br)cc3)CC2c2cn(-c3ccccc3)nc2-c2ccccc2)cc1 (configuration not stated)
false

And CCN(CC)CCCC(C)Nc1c(C)cnc2cc(Cl)c(C)cc12 (configuration not stated) ?
false

Entry `O=C(O)c1ccc(-c2nn(-c3ccc(C(=O)O)cc3)cc2CNc2ccc(Br)cc2)cc1` please
false

Next: `O=c1oc2ccc3ccccc3c2cc1-c1ccnc2[nH]c(=S)[nH]c(=O)c12`
false

# repeat for `c1ccc2[nH]c(-c3ccc(OCCCCCOc4ccc(-c5nc6ccccc6[nH]5)cc4)cc3)nc2c1`
false

Now this one: `CCCCCCCCC/C(=N\NC(=O)c1ccncc1)c1ccc(O)c(O)c1O`
false

Repeat with `COCn1c(C(=O)OC)cc2oc(/C=C3/SC(=S)N(N)C3=O)cc21`
false

`CCCNC(=O)Oc1ccc(/C(=C(/CC)Cc2ccccc2)c2ccc(OCCN(CC)CC)cc2)cc1` ?
false
